Exercise: state measured IC50 for each of the compounds provided.
- ASSAY TARGET: P2X7 receptor (Homo sapiens (Human), UniProt Q99572)
- Sequence (Q99572 whole entry): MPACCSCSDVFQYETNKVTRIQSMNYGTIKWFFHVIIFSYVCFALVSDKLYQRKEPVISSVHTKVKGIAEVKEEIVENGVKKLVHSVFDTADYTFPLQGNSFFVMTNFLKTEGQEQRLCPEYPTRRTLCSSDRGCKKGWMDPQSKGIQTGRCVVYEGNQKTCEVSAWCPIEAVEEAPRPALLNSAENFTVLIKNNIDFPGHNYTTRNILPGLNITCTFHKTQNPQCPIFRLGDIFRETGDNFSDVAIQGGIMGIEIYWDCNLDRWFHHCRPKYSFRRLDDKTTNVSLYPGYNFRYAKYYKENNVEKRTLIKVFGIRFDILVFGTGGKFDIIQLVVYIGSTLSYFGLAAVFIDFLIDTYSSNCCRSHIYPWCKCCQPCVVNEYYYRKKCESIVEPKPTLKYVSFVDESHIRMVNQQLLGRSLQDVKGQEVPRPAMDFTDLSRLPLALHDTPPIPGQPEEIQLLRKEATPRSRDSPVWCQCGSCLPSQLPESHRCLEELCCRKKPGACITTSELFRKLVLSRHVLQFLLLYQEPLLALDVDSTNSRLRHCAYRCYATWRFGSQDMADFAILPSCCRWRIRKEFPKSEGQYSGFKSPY
- MEASUREMENT DESCRIPTION: human P2X7 channel assay by automated patch-clamp (QPatch 16X)
- Type: cell-based
- MEASUREMENT SETUP: HEK-293 cells expressing P2X7 channels, 100 microM BzATP, held at -80 mV, read-out: hP2X7 (IC50; nM)
One number for each entry, in nM.

>  <COMPOUND>
Cc1ncsc1C(CNC(=O)c1c(F)cccc1Cl)N1CCOCC1 (centres unmarked) [Compound 35]

>  <READOUT NAME>
IC50

>  <VALUE MEASURED>
947

$$$$
>  <COMPOUND>
Cc1ncc(C(CNC(=O)c2cc(-c3ncc(F)cn3)ccc2Cl)N2CCC(F)(F)CC2)s1 (racemic) [Compound 61]

>  <READOUT NAME>
IC50

>  <VALUE MEASURED>
56.3

$$$$

Each compound below has a recorded value; state its IC50.
1. Cc1ncsc1C(CNC(=O)c1cc(-c2cnccn2)ccc1Cl)N1CCC(F)(F)CC1 (centres unmarked) [Compound 72]
2. Cc1ncsc1C(CNC(=O)c1c(F)cccc1Cl)N1CCC(Oc2ccccc2)CC1 (centres unmarked) [Compound 60]
3. Cc1ncsc1C(CNC(=O)c1cc(-c2ncc(F)cn2)ccc1F)N1CCC(F)(F)CC1 (centres unmarked) [Compound 70]
4. Cc1ncsc1C(CNC(=O)c1c(F)cccc1Cl)N1CCC(OCc2ccccc2)CC1 (centres unmarked) [Compound 59]
5. O=C(NCC(c1cnco1)N1CCC(F)(F)CC1)c1cc(-c2ncc(F)cn2)ccc1Cl (centres unmarked) [Compound 47]
6. O=C(NCC(c1scnc1C(F)F)N1CCC(F)(F)CC1)c1cc(-c2ncc(F)cn2)ccc1Cl (centres unmarked) [Compound 102]

A)
[78.1, 58.9, 58.4, 69.2, 33.9, 57.1]
